Reported pIC50 values follow for various binders
Target: T1, rabbit serum albumin (rabbit, UniProt P49065 25-608)
T1 construct: also called Rabbit SA; BuSA
T1 sequence (P49065 25-608 limits assumed): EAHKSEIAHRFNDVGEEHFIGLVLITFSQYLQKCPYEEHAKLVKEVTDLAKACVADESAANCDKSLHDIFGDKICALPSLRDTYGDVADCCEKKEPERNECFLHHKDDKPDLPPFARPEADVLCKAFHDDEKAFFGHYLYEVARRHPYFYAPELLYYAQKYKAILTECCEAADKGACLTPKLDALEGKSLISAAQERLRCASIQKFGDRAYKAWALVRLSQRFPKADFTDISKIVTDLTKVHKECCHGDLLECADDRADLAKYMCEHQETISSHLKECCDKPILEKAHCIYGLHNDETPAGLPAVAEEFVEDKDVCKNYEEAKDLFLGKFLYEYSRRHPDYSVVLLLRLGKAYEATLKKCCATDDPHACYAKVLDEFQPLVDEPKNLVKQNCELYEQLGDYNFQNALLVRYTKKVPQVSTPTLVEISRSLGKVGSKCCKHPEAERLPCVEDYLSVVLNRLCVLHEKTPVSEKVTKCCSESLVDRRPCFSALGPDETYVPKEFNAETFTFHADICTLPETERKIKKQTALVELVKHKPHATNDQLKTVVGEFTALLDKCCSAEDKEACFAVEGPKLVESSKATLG
Experiment: peptide competition; head prints RSA, read as rabbit
pIC50: −log10 of the molar value. Positions of bridges follow the written chain, without caps; N, C: chain ends.
property.name: pIC50

binder="Ac-DICLPRWGCL-NH2 (disulfide 3-9 (inferred), free peptide) [SA34]" recorded_number=4.55
binder="Ac-QRLIEDICLPRWGCLWEDDF-NH2 (not fully specified (bridges); printed as Ac QRLIEDICLPRWGCLWEDDF NH2; cysteine pairing not given here, free peptide) [SA20]" recorded_number=6.59
binder="Ac-IEDICLPRWGCLWE-NH2 (disulfide 5-11 (inferred), free peptide) [SA30]" recorded_number=5.74
binder="Ac-LIEDICLPRWGCLWED-NH2 (not fully specified (bridges); printed as Ac LIEDICLPRWGCLWEDNH2; cysteine pairing not given here, free peptide) [SA23]" recorded_number=6.44
binder="Ac-RLIEDICLPRWGCLWE-NH2 (disulfide 7-13 (inferred), free peptide) [SA29]" recorded_number=6.40
